In what follows, each item is paired with its binding signal (PBM E-score (-0.5 to 0.5)) for odd-2 (C34H3.2) (Caenorhabditis elegans) (UniProt Q9N5X6).

Use these answered entries as a reference point.
ACGGAAGC (double strand) [8-mer ACGGAAGC] :: 0.485
AGCTACCG (double strand) [8-mer AGCTACCG] :: 0.492
CAGTAGCA (double strand) [8-mer CAGTAGCA] :: 0.495
CAGTAGCC (double strand) [8-mer CAGTAGCC] :: 0.492
CGGTAGCA (double strand) [8-mer CGGTAGCA] :: 0.496

# input for lookup
Task: Entry GCTACTGA (double strand) [8-mer GCTACTGA] , system odd-2 (C34H3.2) (Caenorhabditis elegans) (UniProt Q9N5X6): what binding signal (PBM E-score (-0.5 to 0.5)) was measured?
Output: 0.486
